# target or test system: T1, cell-surface CD3 epsilon on primary cynomolgus T cells (cynomolgus monkey, UniProt Q95LI5 22-198)
# T1 construct: whole, on cells; also called cynomolgus CD3e; Cyno T-cells
# T1 sequence (Q95LI5 22-198): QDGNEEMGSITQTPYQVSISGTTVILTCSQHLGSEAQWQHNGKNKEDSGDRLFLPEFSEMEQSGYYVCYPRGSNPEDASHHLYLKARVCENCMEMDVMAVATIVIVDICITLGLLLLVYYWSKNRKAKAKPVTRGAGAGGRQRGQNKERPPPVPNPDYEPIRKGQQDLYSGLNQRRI
# protocol details: flow cytometry on primary cynomolgus CD4+ T cells, anti-human IgG Alexa Fluor 647; MFI

[
  {
    "binder": "CD3B151 (antibody, IgG1, V domains shown, IgG1 constant region with L234A, L235A, F405L; human lambda light chain constant region) VH: EVQLLESGGGLVQPGGSLRLSCAASGFTFNTYAMNWVRQAPGKGLEWVARIRSKYNNYATYYADSVKGRFTISRDNSKNTLYLQMNSLRAEDTAVYYCVKHGNFGNSYVSWFAYWGQGTLVTVSS VL: QAVVTQEPSLTVSPGGTVTLTCRSSTGAVTTSNYANWVQQKPGQAPRGLIGGTNKRAPGTPARFSGSLLGGKAALTLSGAQPEDEAEYYCALWYSNLWVFGGGTKLTVL",
    "binding result": "binds"
  },
  {
    "binder": "CD3B155 (antibody, IgG1, V domains shown, IgG1 constant region with L234A, L235A, F405L; human lambda light chain constant region) VH: EVQLVESGGGLVQPGGSLKLSCAASGFTFNTYAMNWVRQASGKGLEWVGRIRSKYNGYATYYAASVKGRFTISRDDSKNTAYLQMNSLKTEDTAVYYCTRHGNFGNSYVSWFAYWGQGTLVTVSS VL: QAVVTQEPSLTVSPGGTVTLTCRSSTGAVTTSNYANWVQQKPGQAPRGLIGGTNKRAPGTPARFSGSLLGGKAALTLSGAQPEDEAEYYCALWYSNLWVFGGGTKLTVL",
    "binding result": "binds"
  },
  {
    "binder": "CD3B124 (antibody, human IgG1, V domains shown, Chimeric: VH and VL of SP34 with murine framework and a human IgG1 Fc; also called in-house chimeric SP34-derived antibody) VH: EVKLLESGGGLVQPKGSLKLSCAASGFTFNTYAMNWVRQAPGKGLEWVARIRSKYNNYATYYADSVKDRFTISRDDSQSILYLQMNNLKTEDTAMYYCVRHGNFGNSYVSWFAYWGQGTLVTVSA VL: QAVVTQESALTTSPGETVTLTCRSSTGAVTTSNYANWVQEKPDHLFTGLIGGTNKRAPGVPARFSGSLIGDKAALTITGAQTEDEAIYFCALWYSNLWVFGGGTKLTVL",
    "binding result": "binds"
  }
]
